The values you see were collected from patent US20210032291A1.

assay target: C3b (biotinylated, captured site-specifically on a streptavidin chip) (UniProt P01024)
assay notes: SPR (Biacore 3000), single-cycle kinetics, biotinylated C3b on streptavidin chip, peptide as analyte, 1:1 Langmuir fit
Bridge positions count the residues as written; N and C are the ends. Square brackets hold non-standard residues; d marks the D form. Ends that are not written are not given here. Trp(1-Me) = Cn1cc(C[C@H](N)C(=O)O)c2ccccc21; NMeI = CC[C@H](C)[C@H](NC)C(=O)O; Sar = CNCC(=O)O
Would you mind telling me the reported koff of each entry?
Report the value in s⁻¹ with no unit label.

Inquiry: Tell me koff reported for WICV[Trp(1-Me)]QDW[Sar]AHRC[NMeI]-NH2 (disulfide 3-13; N-terminus assumed; SMILES CC[C@H](C)[C@H](NC(=O)[C@@H](N)Cc1c[nH]c2ccccc12)C(=O)N[C@H]1CSSC[C@@H](C(=O)N(C)[C@H](C(N)=O)[C@@H](C)CC)NC(=O)[C@H](CCCNC(=N)N)NC(=O)[C@H](Cc2c[nH]cn2)NC(=O)[C@H](C)NC(=O)CN(C)C(=O)[C@H](Cc2c[nH]c3ccccc23)NC(=O)[C@H](CC(=O)O)NC(=O)[C@H](CCC(N)=O)NC(=O)[C@H](Cc2cn(C)c3ccccc23)NC(=O)[C@H](C(C)C)NC1=O) [Peptide 7: Trp-Ile-[Cys-Val-Trp(Me)-Gln-Asp-Trp-Sar-Ala-His-Arg-Cys]-mIle-NH2]
Reply text: 0.0036

Inquiry: Tell me koff reported for YGCV[Trp(1-Me)]QDW[Sar]AHRC[NMeI]-NH2 (disulfide 3-13; N-terminus assumed; SMILES CC[C@H](C)[C@@H](C(N)=O)N(C)C(=O)[C@@H]1CSSC[C@H](NC(=O)CNC(=O)[C@@H](N)Cc2ccc(O)cc2)C(=O)N[C@@H](C(C)C)C(=O)N[C@@H](Cc2cn(C)c3ccccc23)C(=O)N[C@@H](CCC(N)=O)C(=O)N[C@@H](CC(=O)O)C(=O)N[C@@H](Cc2c[nH]c3ccccc23)C(=O)N(C)CC(=O)N[C@@H](C)C(=O)N[C@@H](Cc2c[nH]cn2)C(=O)N[C@@H](CCCNC(=N)N)C(=O)N1) [Peptide 20: Tyr-Gly-[Cys-Val-Trp(Me)-Gln-Asp-Trp-Sar-Ala-His-Arg-Cys]-mIle-NH2]
Reply text: 0.0073

Inquiry: Tell me koff reported for FICVWQDWGAHRCI (mPhe (N-methyl-Phe) at Xaa0; Trp(Me) at position 4; Sar at position 8; mIle at position 13; C-terminal -NH2; cyclic via Cys2-Cys12 disulfide (compstatin position numbering)) [Peptide 10: mPhe-Ile-[Cys-Val-Trp(Me)-Gln-Asp-Trp-Sar-Ala-His-Arg-Cys]-mIle-NH2]
Reply text: 0.0029

Inquiry: Tell me koff reported for IICVWQDWGAHRCI (mIle (N-methyl-Ile; printed 'mlle') at Xaa0; Trp(Me) at position 4; Sar at position 8; mIle at position 13; C-terminal -NH2; cyclic via Cys2-Cys12 disulfide (compstatin position numbering)) [Peptide 12: mIle-Ile-[Cys-Val-Trp(Me)-Gln-Asp-Trp-Sar-Ala-His-Arg-Cys]-mIle-NH2]
Reply text: 0.0037

Inquiry: Tell me koff reported for GICV[Trp(1-Me)]QDW[Sar]AHRC[NMeI]-NH2 (disulfide 3-13; N-terminus assumed; SMILES CC[C@H](C)[C@H](NC(=O)CN)C(=O)N[C@H]1CSSC[C@@H](C(=O)N(C)[C@H](C(N)=O)[C@@H](C)CC)NC(=O)[C@H](CCCNC(=N)N)NC(=O)[C@H](Cc2c[nH]cn2)NC(=O)[C@H](C)NC(=O)CN(C)C(=O)[C@H](Cc2c[nH]c3ccccc23)NC(=O)[C@H](CC(=O)O)NC(=O)[C@H](CCC(N)=O)NC(=O)[C@H](Cc2cn(C)c3ccccc23)NC(=O)[C@H](C(C)C)NC1=O) [Peptide 2: Gly-Ile-[Cys-Val-Trp(Me)-Gln-Asp-Trp-Sar-Ala-His-Arg-Cys]-mIle-NH2]
Reply text: 0.0029
